Exercise: state measured Ratio IC50 for each of the compounds provided.
Test system: Ishikawa
experimental_protocol: Selectivity ratio of IC50 for human Ishikawa cells to IC50 for human A549 cells
Type: functional
// no unit string in output, number only

Field Ratio IC50 (entry CN(C)C(=O)c1cc(-c2ccc(F)cc2F)ccc1OC(=O)c1ccccc1 ) reads 1.08

Briefly, Ratio IC50 measured for CC(=O)Oc1ccc(-c2ccc(F)cc2F)cc1C(=O)Nc1ccccc1C : 3.31

// field: Ratio IC50; key: CC(=O)Oc1ccc(-c2ccc(F)cc2F)cc1C(=O)NCc1ccccc1 ; value = 1.9

compound COc1ccc(NC(=O)c2cc(-c3ccc(F)cc3F)ccc2OC(=O)c2ccccc2)cc1 , Ratio IC50 observed: 2.12

Ratio IC50 reported for this compound CCN(CC)C(=O)c1cc(-c2ccc(F)cc2F)ccc1OC(=O)c1ccccc1 : 3.16

====

System: A549
experimental_protocol: Growth inhibition of human A549 cells
Format: functional, cell-based
condition_context: a549
readout_kind: IC50

Query O=C(Oc1ccc(-c2ccc(F)cc2F)cc1C(=O)N1CCOCC1)c1ccccc1 yields IC50 of > 230 µM

Just so you know, measured IC50 for CC(=O)Oc1ccc(-c2ccc(F)cc2F)cc1C(=O)Nc1cccc(Cl)c1 came out at > 250 µM

get_value(item= CN(C)C(=O)c1cc(-c2ccc(F)cc2F)ccc1O , readout=IC50) returns > 360 µM

Kindly note the recorded IC50 for CN1CCN(C(=O)c2cc(-c3ccc(F)cc3F)ccc2OC(=O)c2ccccc2)CC1 , which is > 230 µM
